B1: Gamma-crystallin S, residues 96 to 176; numbered along this chain, P22914 (parent)
chain: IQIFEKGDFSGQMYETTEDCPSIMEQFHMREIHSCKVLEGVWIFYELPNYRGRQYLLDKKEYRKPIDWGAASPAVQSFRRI

variants of: B1; experiment: abundance fitness (aPCA) (normalised: wild type 0, dead -1); higher = more abundant; growth selection in yeast, the domain comes from the species named; settings: Homo sapiens
Lab note: anything with abundance fitness at or over -0.02 counts as label 1; the rest go in label 0.

Reference set, count: 6
IQIFEKGDFSGQMYETTEDCPSIMEQFHMREIHSCKVLEGKWIFYELPNYRGRQYLLDKKEYRKPIDWGAASPAVQSFRRI
label 1
IQIFEKGDFSGQMYETTEDCPSMMEQFHMREIHSCKVLEGVWIFYELPNYRGRQYLLDKKEYRKPIDWGAASPAVQSFRRI
label 0
VQIFEKGDFSGQMYETTEDCPSIMEQFHMREIHSCKVLEGVWIFYELPNYRGRQYLLDKKEYRKPIDWGAASPAVQSFRRI
label 1
IQIFIKGDFSGQMYETTEDCPSIMEQFHMREIHSCKVLEGVWIFYELPNYRGRQYLLDKKEYRKPIDWGAASPAVQSFRRI
label 1
IQIFEKGDFSGQMYETTEDCPSIMEQFHMREIHSCKVLEGVWIFYELPNYRGRQYLLDKKEYRKPIDWGAADPAVQSFRRI
label 0
IQIFEKGDFSGQMYETTEDCPCIMEQFHMREIHSCKVLEGVWIFYELPNYRGRQYLLDKKEYRKPIDWGAASPAVQSFRRI
label 1

Assess whether reported abundance fitness for `AQIFEKGDFSGQMYETTEDCPSIMEQFHMREIHSCKVLEGVWIFYELPNYRGRQYLLDKKEYRKPIDWGAASPAVQSFRRI` sits at -0.02 or higher.
label 0

Assess whether reported abundance fitness for `IQIFEKGDFSGQMYETTEDCPSIMEQFHMREIHSCKVLEGVWIFYELPNYRGRQYLLDKKWYRKPIDWGAASPAVQSFRRI` sits at -0.02 or higher.
label 1

Assess whether reported abundance fitness for `IQIFEKGDFSGQMYETTEDCPSIMEQFHMREIHSCKVLEGVWIFYELPNYRGRQYLLDKKEYRKPIDWGAASPVVQSFRRI` sits at -0.02 or higher.
label 1

Assess whether reported abundance fitness for `IQIFEKGDFSGQMYETTEDCPSIMEQFHMREIHECKVLEGVWIFYELPNYRGRQYLLDKKEYRKPIDWGAASPAVQSFRRI` sits at -0.02 or higher.
label 0

Assess whether reported abundance fitness for `IQIFEKGDFSGQMYETTEDCPSIMEPFHMREIHSCKVLEGVWIFYELPNYRGRQYLLDKKEYRKPIDWGAASPAVQSFRRI` sits at -0.02 or higher.
label 0
